- Measurement target: Fc-fusion protein receptor ectodomain of BMPR-IB
- Experiment description: ratio of Biacore KDs, BMPR-IA as reference; measurement 2
Quantity kind: fold higher IB affinity over IA, KD(IA): KD(IB) (fold)
Value expressed in fold; do not type the unit.

# lookup: fold higher IB affinity over IA, KD(IA): KD(IB) of recombinant human GDF-5 wild type (ligand) APLATRQGKRPSKNLKARCSRKALHVNFKDMGWDDWIIAPLEYEAFHCEGLCEFPLRSHLEPTNHAVIQTLMNSMDPESTPPTACVPTRLSPISILFIDSANNVVYKQYEDMVVESCGCR
40

I'd like to know its fold higher IB affinity over IA, KD(IA): KD(IB). The binder in question is human GDF-5 mutant W417R (ligand) APLATRQGKRPSKNLKARCSRKALHVNFKDMGWDDRIIAPLEYEAFHCEGLCEFPLRSHLEPTNHAVIQTLMNSMDPESTPPTCCVPTRLSPISILFIDSANNVVYKQYEDMVVESCGCR
2650

Value lookup for fold higher IB affinity over IA, KD(IA): KD(IB); key = human GDF-5 mutant W417F (ligand) APLATRQGKRPSKNLKARCSRKALHVNFKDMGWDDFIIAPLEYEAFHCEGLCEFPLRSHLEPTNHAVIQTLMNSMDPESTPPTCCVPTRLSPISILFIDSANNVVYKQYEDMVVESCGCR
587

Next binder, please.
Entry recombinant human GDF-5 mutant S439E (ligand) APLATRQGKRPSKNLKARCSRKALHVNFKDMGWDDWIIAPLEYEAFHCEGLCEFPLREHLEPTNHAVIQTLMNSMDPESTPPTCCVPTRLSPISILFIDSANNVVYKQYEDMVVESCGCR : reported fold higher IB affinity over IA, KD(IA): KD(IB) = ?
581
